Origin of values: patent US20110076293A1

Measured EC50 accompanies every entry in the list below.
Tested on: Jurkat human T lymphocyte cell line
Assay: Apoptosis assay (Annexin V) of compounds incubated with human serum
Conditions: Homo sapiens, Jurkat, 0.5 h, read-out: ED50 (nM) in apoptosis assay after incubation with serum, incubation time in human serum 0.5 hours, 37° C.
Protocol: Compounds of formula I, as shown in Table 1 above and in the Examples, were assayed for their capacity to induce apoptosis in cells from the Jurkat human T lymphocyte cell line, after incubation with pooled human serum for varying periods of time at 37° C. (see Example 19). An ester prodrug, triptolide-14-succinate, designated PG490-88, was included for comparison. The extent of conversion to triptolide after such incubation was also independently determined by HPLC analysis. […]
API: value field is a number in nM; no unit string.

CCOCCOC(=O)O[C@@H]1[C@@]2(C(C)C)O[C@H]2[C@@H]2O[C@]23[C@]12O[C@H]2C[C@H]1C2=C(CC[C@@]13C)C(=O)OC2 [PG679, Triptolide 14-Ethoxyethyl Carbonate]: 39

Please find the next compound below.
Record CCOC(=O)O[C@@H]1[C@@]2(C(C)C)O[C@H]2[C@@H]2O[C@]23[C@]12O[C@H]2C[C@H]1C2=C(CC[C@@]13C)C(=O)OC2 [PG674, Triptolide 14-Ethyl Carbonate] has Jurkat human T lymphocyte cell line EC50 equal to 27

* * *

System: Jurkat human T lymphocyte cell line
Test: Apoptosis assay (Annexin V) of compounds incubated with human serum
Conditions: Table 5; human serum (48 hrs); 100 nM
measuredEndpoint: % apoptotic cells at given concentration (nM)

Solved cases below.
CC(C)[C@]12O[C@H]1[C@@H]1O[C@]13[C@]1(O[C@H]1C[C@H]1C4=C(CC[C@@]13C)C(=O)OC4)[C@@H]2OC(=O)NCCN(C)C [PG688]: 9.4%
CC(C)[C@]12O[C@H]1[C@@H]1O[C@]13[C@]1(O[C@H]1C[C@H]1C4=C(CC[C@@]13C)C(=O)OC4)[C@@H]2OC(=O)CCC(=O)O [PG490-88, triptolide-14-succinate, reference compound]: 23.3%
CCNC(=O)O[C@@H]1[C@@]2(C(C)C)O[C@H]2[C@@H]2O[C@]23[C@]12O[C@H]2C[C@H]1C2=C(CC[C@@]13C)C(=O)OC2 [PG666, Triptolide 14-Ethyl Carbamate]: 9.5%

Please find the next compound below.
For record CC(C)[C@]12O[C@H]1[C@@H]1O[C@]13[C@]1(O[C@H]1C[C@H]1C4=C(CC[C@@]13C)C(=O)OC4)[C@@H]2O [PG490, Triptolide] the listed % apoptotic cells at given concentration (nM) is 86.5%

* * *

System: Jurkat human T lymphocyte cell line
Experiment: Apoptosis assay (Annexin V) of compounds incubated with human serum
Details: Table 3; human serum, 48 hr; 10000 nM
Measured % apoptotic cells at given concentration (nM) accompanies every entry in the list below.
API: value field is a number in %; no unit string.

Solved cases below.
CC(C)[C@]12O[C@H]1[C@@H]1O[C@]13[C@]1(O[C@H]1C[C@H]1C4=C(CC[C@@]13C)C(=O)OC4)[C@@H]2O [PG490, Triptolide]: 95.4
CC(C)[C@]12O[C@H]1[C@@H]1O[C@]13[C@]1(O[C@H]1C[C@H]1C4=C(CC[C@@]13C)C(=O)OC4)[C@@H]2OC(=O)CCC(=O)O [PG490-88, triptolide-14-succinate, reference compound]: 95.1
CC(C)[C@]12O[C@H]1[C@@H]1O[C@]13[C@]1(O[C@H]1C[C@H]1C4=C(CC[C@@]13C)C(=O)OC4)[C@@H]2OC(=O)CCC(N)C(=O)O (stereo partly shown) [PG661, 14-isoglutamyl ester, reference compound]: 9.4

Please find the next molecule below.
Record CCNC(=O)O[C@@H]1[C@@]2(C(C)C)O[C@H]2[C@@H]2O[C@]23[C@]12O[C@H]2C[C@H]1C2=C(CC[C@@]13C)C(=O)OC2 [PG666, Triptolide 14-Ethyl Carbamate] has Jurkat human T lymphocyte cell line % apoptotic cells at given concentration (nM) equal to 93.5
